FYI, the data here is from patent US8980848B2.

system-name: Pgp (LCC6MDR cells) (Homo sapiens)
Sequence (P08183 whole entry): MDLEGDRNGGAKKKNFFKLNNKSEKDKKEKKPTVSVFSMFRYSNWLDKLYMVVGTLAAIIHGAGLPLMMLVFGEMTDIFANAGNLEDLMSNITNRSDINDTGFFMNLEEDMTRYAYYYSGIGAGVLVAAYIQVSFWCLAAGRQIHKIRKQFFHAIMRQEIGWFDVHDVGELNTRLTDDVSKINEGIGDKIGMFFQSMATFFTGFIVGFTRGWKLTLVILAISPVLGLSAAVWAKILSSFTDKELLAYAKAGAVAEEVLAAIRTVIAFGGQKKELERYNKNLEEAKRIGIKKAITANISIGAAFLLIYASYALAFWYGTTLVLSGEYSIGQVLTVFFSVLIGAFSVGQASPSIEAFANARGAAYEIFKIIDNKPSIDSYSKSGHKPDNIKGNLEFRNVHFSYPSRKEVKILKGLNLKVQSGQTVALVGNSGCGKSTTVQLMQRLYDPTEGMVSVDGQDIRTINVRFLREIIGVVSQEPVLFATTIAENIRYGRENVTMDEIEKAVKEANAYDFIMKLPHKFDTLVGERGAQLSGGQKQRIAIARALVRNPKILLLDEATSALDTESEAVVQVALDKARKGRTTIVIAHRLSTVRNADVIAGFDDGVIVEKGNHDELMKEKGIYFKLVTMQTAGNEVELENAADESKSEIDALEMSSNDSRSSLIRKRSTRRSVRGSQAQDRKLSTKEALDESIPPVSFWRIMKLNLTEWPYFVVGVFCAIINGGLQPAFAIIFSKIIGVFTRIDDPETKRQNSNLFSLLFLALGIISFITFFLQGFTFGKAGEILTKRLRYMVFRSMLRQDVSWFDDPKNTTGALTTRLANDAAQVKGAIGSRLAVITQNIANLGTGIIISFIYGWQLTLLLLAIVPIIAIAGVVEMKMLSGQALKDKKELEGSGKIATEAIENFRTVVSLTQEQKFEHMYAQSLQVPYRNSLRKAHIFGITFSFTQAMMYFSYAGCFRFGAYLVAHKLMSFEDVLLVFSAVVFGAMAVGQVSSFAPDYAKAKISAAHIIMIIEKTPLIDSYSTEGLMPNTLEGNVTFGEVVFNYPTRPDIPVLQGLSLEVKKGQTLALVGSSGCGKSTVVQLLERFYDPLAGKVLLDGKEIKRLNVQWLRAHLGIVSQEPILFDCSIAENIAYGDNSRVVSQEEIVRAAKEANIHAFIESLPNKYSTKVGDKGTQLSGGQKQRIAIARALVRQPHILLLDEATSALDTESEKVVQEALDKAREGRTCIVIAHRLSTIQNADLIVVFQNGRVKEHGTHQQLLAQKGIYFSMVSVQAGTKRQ
method: Cell proliferation assay: Pgp-modulating activity, reversal of anticancer drug resistance in LCC6MDR cells
settings: EC50 of compounds for reversing anticancer drug resistance (nM), Vinblasinte, LCC6MDR, vinblastine
experimental-endpoint: EC50 (nM)
Unit nM implied. Number only.

Entry O=c1cc(-c2ccc(OCCOCCN(CCOCCOc3ccc(-c4cc(=O)c5ccccc5o4)cc3)Cc3ccccc3)cc2)oc2ccccc12 ; assay system Pgp (LCC6MDR cells) (Homo sapiens); EC50 recorded at 173

With Pgp (LCC6MDR cells) (Homo sapiens) as the test system, O=c1cc(-c2ccc(OCCOCCN(CCOCCOc3ccc(-c4cc(=O)c5ccccc5o4)cc3)Cc3ccc(-c4ccccc4)cc3)cc2)oc2ccccc12 showed EC50 of 38

Reported Pgp (LCC6MDR cells) (Homo sapiens) EC50 for item COc1ccc(CN(CCOCCOc2ccc(-c3cc(=O)c4ccccc4o3)cc2)CCOCCOc2ccc(-c3cc(=O)c4ccccc4o3)cc2)cc1 [Compound 42a] was 94
